Each entry below carries its recorded growth.
Tested on: E. coli TESEC Mtb Alr
Assay remarks: growth (OD600 after 10 h); higher = more growth (less inhibition)
Measurement parameters: arabinose 100 nM; compound 0.1 mM; raw OD600 reference: median of DMSO wells 0.413, cell-free background 0.052
Where a name gives a salt, the structure may show the parent alone.

Previously resolved entries follow.
Clc1ccc(Nc2nnc(Cc3ccncc3)c3ccccc23)cc1 [Vatalanib] : 0.303
CC(C)OC(=O)C(C)(C)Oc1ccc(C(=O)c2ccc(Cl)cc2)cc1 [Fenofibrate] : 0.401
Cn1c(=O)c2c(ncn2CC2OCCO2)n(C)c1=O [Doxofylline] : 0.408
CC(c1cc2ccccc2s1)N(O)C(N)=O (stereo unspecified) [Zileuton] : 0.403
CCCCOC(=O)c1ccc(N)cc1 [Butamben] : 0.36
Cc1cc2c(s1)Nc1ccccc1N=C2N1CCN(C)CC1 [Olanzapine] : 0.403

Query :: Which growth value is on record for "CCCCNc1ccc(C(=O)OCCN(C)C)cc1" ?
Result :: 0.396

Query :: Which growth value is on record for COc1cc(C)c(/C=C/C(C)=C/C=C/C(C)=C/C(=O)O)c(C)c1C [Acitretin] ?
Result :: 0.369

Query :: Which growth value is on record for NC[C@@H]1O[C@H](O[C@H]2[C@@H](O)[C@H](O[C@@H]3[C@@H](O)[C@H](N)C[C@H](N)[C@H]3O[C@H]3O[C@H](CO)[C@@H](O)[C@H](O)[C@H]3N)O[C@@H]2CO)[C@H](N)[C@@H](O)[C@@H]1O [Paromomycin sulfate] ?
Result :: 0.405

Query :: Which growth value is on record for COC(=O)Nc1nc2cc(C(=O)c3ccc(F)cc3)ccc2[nH]1 [Flubendazol] ?
Result :: 0.414

Query :: Which growth value is on record for CC(=O)Nc1ccc(OCC(O)CNC(C)C)cc1 (stereo unspecified) [Practolol] ?
Result :: 0.402

Query :: Which growth value is on record for C[C@@H](c1ncncc1F)[C@](O)(Cn1cncn1)c1ccc(F)cc1F [Voriconazole] ?
Result :: 0.412

Query :: Which growth value is on record for Cc1ncc([N+](=O)[O-])n1CCO [Metronidazole] ?
Result :: 0.394

====

Tested on: E. coli TESEC Mtb Alr
Assay remarks: growth (OD600 after 10 h); higher = more growth (less inhibition)
Measurement parameters: arabinose 100 nM; compound 0.1 mM; raw OD600 reference: median of DMSO wells 0.413, cell-free background 0.052
Structures can show the parent of a compound that is named as a salt.
Property measured: growth
Please give the numeric answer without any surrounding text.

Previously resolved entries follow.
CC(=O)Oc1ccc(C(c2ccc(OC(C)=O)cc2)c2ccccn2)cc1 : 0.39
COc1ccc2c(c1)c(CC(=O)O)c(C)n2C(=O)c1ccc(Cl)cc1 : 0.366
Cc1cc(CC(=O)O)n(C)c1C(=O)c1ccc(Cl)cc1 [Zomepirac sodium salt] : 0.392
CC1(C)[C@@H](OC(=O)CCC(=O)O)CC[C@]2(C)[C@H]3C(=O)C=C4[C@@H]5C[C@@](C)(C(=O)O)CC[C@]5(C)CC[C@@]4(C)[C@]3(C)CC[C@@H]12 [Carbenoxolone disodium salt] : 0.405
CCOC(=O)[N-]c1c[n+](N2CCOCC2)no1 : 0.408
O=C(CCCCCCC(=O)Nc1ccccc1)NO : 0.415
CC(C)NC[C@@H](O)COc1ccc(CC(N)=O)cc1 [(R)-(+)-Atenolol] : 0.405

Proceeding to the next molecule to report its growth.
Query :: Which growth value is on record for COc1ccc(CN(CCN(C)C)c2ccccn2)cc1 [Pyrilamine maleate] ?
Result :: 0.396
